Where these numbers come from: PubChem BioAssay AID1159558

biological target: Sterol 14-alpha demethylase (Trypanosoma cruzi (strain CL Brener)) (UniProt Q7Z1V1); assay: TcCYP51 inhibitors, dose response, mechanism study for T. cruzi antiparasitic project, biochemical, recombinant enzyme (AID 1159558);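 note: enzyme in bacterial membranes with Anopheles gambiae CYP reductase and cytochrome b5 partners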; conditions: recombinant T. cruzi CYP51, BOMCC fluorescence
Sequence (Q7Z1V1 whole entry, looked up): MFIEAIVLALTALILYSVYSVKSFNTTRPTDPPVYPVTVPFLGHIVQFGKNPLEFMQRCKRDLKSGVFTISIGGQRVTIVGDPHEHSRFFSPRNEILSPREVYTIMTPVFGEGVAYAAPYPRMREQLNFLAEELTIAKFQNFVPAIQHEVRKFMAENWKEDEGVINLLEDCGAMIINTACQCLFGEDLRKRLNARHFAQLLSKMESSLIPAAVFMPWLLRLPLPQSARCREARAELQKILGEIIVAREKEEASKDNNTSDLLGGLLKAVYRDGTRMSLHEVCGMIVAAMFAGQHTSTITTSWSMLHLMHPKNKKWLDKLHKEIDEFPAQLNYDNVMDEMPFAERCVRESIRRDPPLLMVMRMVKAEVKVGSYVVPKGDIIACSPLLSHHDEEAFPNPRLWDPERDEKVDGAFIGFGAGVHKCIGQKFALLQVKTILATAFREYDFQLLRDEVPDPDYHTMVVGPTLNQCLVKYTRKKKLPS
The source made the active and inactive calls.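 Rule for the calls: active = IC50 against T. cruzi CYP51 below a set limit; inactive = the rest.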
Log the outcome using a class from True (active), False (inactive)

Consider the worked cases shown below.
- Cn1nc([N+](=O)[O-])nc1N1CCCCC1: False
- COCc1cnc2c(c1SCc1c(F)cccc1Cl)c(=O)n(C)c(=O)n2C: True
- CCC(CC)C(=O)Nc1cccc(C(=O)Nc2nnc(C3CCCCC3)s2)c1: False
- O=c1cc(CSc2ccc(Cl)cc2)nc(-c2ccccn2)[nH]1: True
- CC(C)C[C@H](NC(=O)c1ccc(-c2ccccc2)o1)C(=O)NC1(C#N)CC1: False
- O=C(NCCc1ccccn1)C(c1cn[nH]c1)N1CCN(c2ccc(Cl)c(Cl)c2)CC1 (stereo unspecified): True
- Cc1nc(-c2ccncc2)ncc1C(C)NC(=O)c1ccc(Cl)s1 (stereo unspecified): True
- COc1cccc(S(=O)(=O)Nc2ccc3c(c2)CC(N2CCC(NC(=O)C4CC4)CC2)C3)c1 (stereo unspecified): True
- CCOc1ccc(N(C)S(=O)(=O)c2ccc3[nH]cc(C(=O)NC4CCCC4)c(=O)c3c2)cc1: True
- O=C(Nc1ccc(C(=O)N2CCCC2c2ccc3c(c2)OCCCO3)cc1)c1ccco1 (stereo unspecified): True

Let us examine a further case.
Write down the call the test reported for this molecule. Item: "O=C(CN(Cc1ccccn1)Cc1ccccn1)NCc1csc(-c2cccs2)n1"
True
